Molecular target: FGFR1 kinase (Homo sapiens)
Construct: purchased Upstate, USA
Sequence (P11362 22-822): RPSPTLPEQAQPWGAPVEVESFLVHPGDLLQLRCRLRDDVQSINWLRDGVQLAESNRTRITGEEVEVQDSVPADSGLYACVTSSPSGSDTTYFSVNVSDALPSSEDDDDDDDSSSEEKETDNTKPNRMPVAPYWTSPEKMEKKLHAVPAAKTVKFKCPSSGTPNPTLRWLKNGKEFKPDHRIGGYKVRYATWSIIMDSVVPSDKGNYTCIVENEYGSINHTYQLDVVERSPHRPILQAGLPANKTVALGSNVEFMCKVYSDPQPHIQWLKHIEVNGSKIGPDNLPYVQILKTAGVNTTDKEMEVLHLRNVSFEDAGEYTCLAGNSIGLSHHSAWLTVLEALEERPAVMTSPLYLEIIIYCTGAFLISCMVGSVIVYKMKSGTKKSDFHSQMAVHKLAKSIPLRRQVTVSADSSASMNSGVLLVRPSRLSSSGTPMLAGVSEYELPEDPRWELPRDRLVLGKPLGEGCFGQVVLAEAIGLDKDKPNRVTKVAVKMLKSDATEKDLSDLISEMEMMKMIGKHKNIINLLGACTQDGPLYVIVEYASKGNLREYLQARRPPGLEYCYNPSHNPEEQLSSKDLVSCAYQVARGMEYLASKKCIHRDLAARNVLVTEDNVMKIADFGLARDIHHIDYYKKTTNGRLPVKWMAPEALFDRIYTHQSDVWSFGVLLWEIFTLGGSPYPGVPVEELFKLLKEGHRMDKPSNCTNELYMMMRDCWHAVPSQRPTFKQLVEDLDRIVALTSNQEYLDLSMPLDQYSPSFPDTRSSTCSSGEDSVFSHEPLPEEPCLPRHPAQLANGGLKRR
Assay: TR-FRET assay with FGFR1 kinase
Assay type: biochemical
Conditions: compound at 1000 nM, 13 μM ATP
reported_property: inhibition at 1 µM (%)

>>> df
                                   molecule  result
0  Cn1cc(-c2ccc3c(c2)ncn3-c2cc(-c3ncccc3Cl)cc(NS(=O)(=O)C3CC3)n2)cn1 [Example 29]      97
1  Cn1cc(-c2ccc3c(c2)ncn3-c2cc(-c3ccc(F)cc3)cc(NS(=O)(=O)C3CC3)n2)cn1 [Example 14]      98
2  CN(C)CCn1cc(-c2ccc3c(c2)ncn3-c2cc(-c3ccc(F)cc3F)cc(NS(=O)(=O)C3CC3)n2)cn1 [Example 21]      99
3  CC(=O)Nc1cc(-c2ncc(F)cc2F)cc(-n2cnc3cc(-c4cnn(C)c4)ccc32)n1 [Example 26]      94
4  Cn1cc(-c2ccc3c(c2)ncn3-c2cc(-c3ccc(F)cc3OC(F)F)cc(NS(=O)(=O)C3CC3)n2)cn1 [Example 40]      76
5  Cn1cc(-c2ccc3c(c2)ncn3-c2cc(-c3ccc(F)cn3)cc(NS(=O)(=O)C3CC3)n2)cn1 [Example 30]      96
6  O=S(=O)(Nc1cc(-c2ccc(F)cc2F)cc(-n2cnc3cc(-c4cnn(C5CCNC5)c4)ccc32)n1)C1CC1 (stereo not shown) [Example 34]      99

---

Biological target: FGFR1 kinase (Homo sapiens)
Construct: purchased Upstate, USA
Test: TR-FRET assay with FGFR1 kinase
Type: biochemical
Conditions: 13 μM ATP, dose response, read-out: IC50 of FGFR1 inhibition
// reported IC50 for each item listed
reported_property: IC50 (nM)

                         compound_structure  reported_property  result
0  Cn1cc(-c2ccc3c(c2)ncn3-c2cc(-c3ncccc3Cl)cc(NS(=O)(=O)C3CC3)n2)cn1               IC50     9.7
1  Cn1cc(-c2ccc3c(c2)ncn3-c2cc(-c3ccc(F)cc3F)nc(NS(=O)(=O)C3CC3)n2)cn1               IC50    32.7
2  Cn1cc(-c2ccc3c(c2)ncn3-c2cc(NS(=O)(=O)C3CC3)nc(-c3ccc(F)cc3F)c2)cn1               IC50    43.4
3  Cn1cc(-c2ccc3c(c2)ncn3-c2cc(-c3ccc(F)cn3)cc(NS(=O)(=O)C3CC3)n2)cn1               IC50      24
